# ASSAYED_TARGET: angiotensin II receptor (rat uterine membranes)
# TEST_SUMMARY: Angiotensin II binding assay (125I-angiotensin II, rat uterine membranes)
# CONDITION_SET: meaning not explained
For each record, write down the corresponding pIC50.
The quantity pIC50 is defined as the negative base-10 logarithm of the molar concentration.

CCCCCc1nc2cc(C)c(=O)c(C)cc2n1Cc1ccc(-c2ccccc2-c2nn[nH]n2)cc1 [Example 20] on angiotensin II receptor (rat uterine membranes) gives pIC50 = 6.49

angiotensin II receptor (rat uterine membranes) assay, compound CCCCc1nc2ccc(=O)ccc2n1Cc1ccc(-c2ccccc2C(=O)O)cc1 [Example 3] , recorded pIC50 = 7.62

Item CCCCc1nc2cc(C(=O)O)c(=O)c(C(=O)O)cc2n1Cc1ccc(-c2ccccc2C(=O)O)cc1 [Example 2] ; assay system angiotensin II receptor (rat uterine membranes); pIC50 reported as 6.85
